experiment: Restrictive medium S. cerevisiae growth inhibition, OD615, pilot screen of yeast lifespan reduction project, restrictive growth control (AID 706); conditions: OD615, 48 h, at 10 µM, active compounds read high;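 further: modified DeaD lifespan yeast strain shifted to restrictive glucose medium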
Assign growth inhibition to each entry below.
State the answer as a number, implicitly in %.

Supply growth inhibition value. Item: `O=C1C(C=NCCN2CCOCC2)=C(O)c2ccccc21`
-26.8

Supply growth inhibition value. Item: `Cn1cnnc1SCc1ccc(C(=O)O)cc1`
7.69

Supply growth inhibition value. Item: `COC(=O)CCC(=O)Nc1nc(-c2ccccc2)cs1`
-17.9

Supply growth inhibition value. Item: `COc1cc2[nH]c(=O)n(CCC(=O)N3CCN(c4cccc(C)c4C)CC3)c(=O)c2cc1OC`
-5.83

Supply growth inhibition value. Item: `CC(C)(CC(=O)O)Cc1nc(-c2ccc(Cl)cc2)no1`
10.4

Supply growth inhibition value. Item: COc1ccc(OC)c(C2CC(=O)N3CN(c4cccc(Cl)c4C)CSC3=C2C#N)c1 (configuration not stated)
13.8

Supply growth inhibition value. Item: `N#Cc1ccccc1N=C1CCCN1Cc1ccccc1`
9.46

----------
Assign growth inhibition to each entry below.
assay: Restrictive medium S. cerevisiae growth inhibition, OD615, pilot screen of yeast lifespan reduction project, restrictive growth control (AID 706); conditions: OD615, 48 h, at 10 µM, active compounds read high;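 further: modified DeaD lifespan yeast strain shifted to restrictive glucose medium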
State the answer as a number, implicitly in %.

Supply growth inhibition value. Item: `Cc1cc(C)nc(SCC(=O)Nc2ccc(S(=O)(=O)Nc3onc(C)c3C)cc2)n1`
14

Supply growth inhibition value. Item: `CCn1c2ccccc2c2nnc(SCc3cc(=O)n4ccsc4n3)nc21`
8.05

Supply growth inhibition value. Item: `O=c1cc(NCc2ccco2)c2ccccc2o1`
-3.13

Supply growth inhibition value. Item: `CCN(CC)S(=O)(=O)c1ccc2oc(C(=O)NCc3ccc(F)cc3)c(C)c2c1`
12.4

Supply growth inhibition value. Item: `Cc1ccc2nc(NC3=NCN(Cc4ccco4)CN3)nc(C)c2c1`
-0.67

Supply growth inhibition value. Item: `Cc1cccc(C)c1NC(=O)C1(NC(=O)c2cnccn2)CCCCC1`
0.045

Supply growth inhibition value. Item: `CCCCCCn1c(CN2CCN(CCO)CC2)nc2c1c(=O)n(C)c(=O)n2C`
-11.2

Supply growth inhibition value. Item: `CCOc1ccc(-n2c(SCC(=O)Nc3ccc4c(c3)OCCO4)nc3c(c2=O)SCC3)cc1`
-5.05

Supply growth inhibition value. Item: `Cc1cccc(N(C)C(=O)CCS(=O)(=O)c2cccc3nonc23)c1`
0.54

Supply growth inhibition value. Item: O=C1NCCCC1C(=O)N1CCN(C(=O)c2ccco2)CC1 (configuration not stated)
-1.05

Supply growth inhibition value. Item: C=CCSc1nnc2c(n1)OC(c1cccnc1)Nc1ccccc1-2 (configuration not stated)
13.7

Supply growth inhibition value. Item: `COc1ccccc1-n1c(SCC(=O)Nc2nnc(C)s2)nc2c(c1=O)SCC2`
3.71

----------
test: inhibitors of the yeast RAM network, pilot screen, dse1pr::URA3 reporter, 5-FOA selection (AID 869);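 further: 0% = DMSO wells with no growth and 100% = 10 µM 1-NA-PP1 with full growth; RAM network block rescues cells from 5-FOA so hits raise OD615 growth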; details: S. cerevisiae dse1pr::URA3 5-FOA growth, OD615, 2 d; at 10 µM; active compounds read high; strain carries analog-sensitive mutant Cbk1 kinase
Classify by measured inhibition: T if it is equal to or exceeds 2%, F if it is smaller.

Item CCC(SCC(=O)OC)C(=O)Nc1nnc(C(C)C)s1 (stereo unspecified) with inhibition of 2% or above?
T

Item `NC(=O)c1oc2ccccc2c1NC(=O)CCc1ccccc1` with inhibition of 2% or above?
F

Item `CCOc1ccc(NC(=O)c2ccc(N)cc2)cc1` with inhibition of 2% or above?
T

Item `COc1cc(C(=O)n2nc(C)cc2C)cc(OC)c1OC` with inhibition of 2% or above?
F

Item COc1ccc(N2C(=O)C3CCCN3C2c2ccc(C)cc2)cc1 (stereo unspecified) with inhibition of 2% or above?
F

Item `Cc1cccn2cc(CCNC(=O)c3ccc(Br)o3)nc12` with inhibition of 2% or above?
F
